- tested.target: T1, cynomolgus monkey IL-33 expressed with a C-terminal hexahistidine tag (cynomolgus monkey)
- T1 construct: also called MfIL-33-6His; Mf-IL-33-6His
- T1 chain: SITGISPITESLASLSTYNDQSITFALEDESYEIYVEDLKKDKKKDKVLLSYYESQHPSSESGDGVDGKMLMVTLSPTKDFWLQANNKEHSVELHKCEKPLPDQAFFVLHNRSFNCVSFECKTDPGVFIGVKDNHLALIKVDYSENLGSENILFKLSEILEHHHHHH
- assay.comment: SPR 25C, pH6.0 chase, mAb captured
observable: t½ Ratio (pH 7.4/pH 6.0)
One number for each entry.

{"columns": ["binder", "t½ Ratio (pH 7.4/pH 6.0)"],
 "data": [
  ["H4H9662P (antibody, V domains shown, Human IgG4 Fc (H4H)) VH: EVQLVESGGGLVQPGGSLRLSCAASGFTFSSYALTWVRQAPGKGLEWVSFISGSGGRPFYADSVKGRFTISRDNSKNMLYLQMNSLRAEDTAIYYCAKSLYTTSWYGGFDSWGQGTLVTVSS VL: DIQMTQSPSSVSASVGDRVTITCRASQGVVSWLAWYQQKPGKAPKLLIYAASSLQSGVPSRFSGSGSGTDFTLTISSLQPEDFATYYCQQSNSFPFTLGPGTKVDIK", 0.3]
]}

Below: the item to evaluate.
Enquiry: I'd like to know its t½ Ratio (pH 7.4/pH 6.0). The binder in question is H4H9671P (antibody, human IgG4, V domains shown, Human IgG4 Fc (H4H)) VH: EVQLVESGGGLVQPGGSLRLSCAASGFTLRSYFMTWVRQVPGKGLEGVSAISGISGGTYYTDSVKGRFTISRDNSKNTLFLQMNSLRAEDTAVYFCARTVYSSSYYGGFQHWGQGTLVTVSS VL: DIQMTQSPSSVSVSVGDRVTITCRASQGISSWLAWYQQKPGKAPKLLIYVASSLQSGVPSRFSGSGSGTDFTLTISSLQPEDFATYYCQQTNSFPLTFGGGTKVEIK
Return: 1.1
